- assay target: IL16_1, Q14005
- Sequence (Q14005 210-306): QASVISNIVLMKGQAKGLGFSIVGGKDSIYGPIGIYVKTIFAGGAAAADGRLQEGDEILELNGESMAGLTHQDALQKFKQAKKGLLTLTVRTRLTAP
- procedure summary: holdup assay
- Set-up: key: below the threshold = too weak to quantify, mostly under pKd 3.1 to 4
- reported conditions: plain residues with an end cap or a label only (N-terminal biotin on a linker: ado-ado)

>  <binder>
PEYLGLDVPV [ERBB2, P04626]

>  <pKd>
3.65

$$$$
>  <binder>
TLPRKRMSSI [GPRC6A, Q5T6X5]

>  <pKd>
below the threshold

$$$$
>  <binder>
EVNETDDTKM [KCNJ1, P48048]

>  <pKd>
below the threshold

$$$$
>  <binder>
HLRARKSEWV [GJD4, Q96KN9]

>  <pKd>
below the threshold

$$$$
>  <binder>
QSPANIYYKV [EFNB1, P52799]

>  <pKd>
below the threshold

$$$$
>  <binder>
SSALYGESDL [ACTN2, P35609]

>  <pKd>
below the threshold

$$$$
>  <binder>
MLSKQSESAI [FLVCR1, Q9Y5Y0]

>  <pKd>
below the threshold

$$$$
>  <binder>
RRLPGKETMA [GRIK2, Q13002]

>  <pKd>
below the threshold

$$$$
